Recorded PPARγ activating action (activation % (10^−6 M)), one value per entry.
target_system: PPARγ (Homo sapiens)
Construct: expressed in transfected cells; host or cells: CHO-K1
Sequence (P37231 29-505): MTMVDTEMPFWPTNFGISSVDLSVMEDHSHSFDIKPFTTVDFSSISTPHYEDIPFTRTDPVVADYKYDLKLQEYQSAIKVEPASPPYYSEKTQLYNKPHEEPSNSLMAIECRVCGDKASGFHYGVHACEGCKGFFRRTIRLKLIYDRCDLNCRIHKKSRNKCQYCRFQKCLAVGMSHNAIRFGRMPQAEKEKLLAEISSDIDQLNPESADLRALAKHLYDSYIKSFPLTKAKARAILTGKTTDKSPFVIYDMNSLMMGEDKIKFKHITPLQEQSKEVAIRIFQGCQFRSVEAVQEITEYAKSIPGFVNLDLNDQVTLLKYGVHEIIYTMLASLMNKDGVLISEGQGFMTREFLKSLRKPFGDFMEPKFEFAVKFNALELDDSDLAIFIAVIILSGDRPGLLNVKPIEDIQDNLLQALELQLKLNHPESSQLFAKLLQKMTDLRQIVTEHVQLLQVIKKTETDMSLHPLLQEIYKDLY
Sequence (P19793 whole entry partner): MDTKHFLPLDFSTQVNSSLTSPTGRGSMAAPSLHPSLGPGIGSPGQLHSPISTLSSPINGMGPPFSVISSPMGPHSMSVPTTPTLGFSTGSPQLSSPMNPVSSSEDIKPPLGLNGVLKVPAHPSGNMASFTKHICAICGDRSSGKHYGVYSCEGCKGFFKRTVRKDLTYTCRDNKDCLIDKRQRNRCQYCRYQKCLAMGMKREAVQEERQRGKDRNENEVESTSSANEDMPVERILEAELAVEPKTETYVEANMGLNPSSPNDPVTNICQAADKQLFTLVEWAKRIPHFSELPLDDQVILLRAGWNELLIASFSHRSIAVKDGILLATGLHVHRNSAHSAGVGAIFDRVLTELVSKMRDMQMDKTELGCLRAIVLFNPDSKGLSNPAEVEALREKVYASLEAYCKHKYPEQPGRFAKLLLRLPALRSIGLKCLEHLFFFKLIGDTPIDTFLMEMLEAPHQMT
protocol_summary: Evaluation of PPARγ activating action (luciferase reporter, PPARγ:RXRα:4ERPP/CHO-K1 cells)
Type: cell-based
experimental_setup: test compound 10^−6 M; luciferase activity of control compound X (1 μM) = 100%, non-administration group = 0%
Counter-ions that a name gives are not always drawn.
Write the value in % as a bare number.

Please review the entries below; each comes with its answer.
>>> reported("CCCc1nc(CC)n(-c2ccc3c(c2)CC(C)O3)c(=O)c1Cc1ccc(-c2ccccc2-c2noc([O-])n2)cc1.[K+] (centres unmarked)")
50.3
>>> reported("CCCc1nc(CC)c(Oc2cccc(OC)c2)c(=O)n1Cc1ccc(-c2ccccc2-c2noc(O)n2)cc1 [Example 488, potassium salt]")
16.7
>>> reported("CCCCc1nc(CC)n(Cc2ccccc2)c(=O)c1Cc1ccc(-c2ccccc2-c2noc(=O)[nH]2)cc1")
64.1

Sure, the documented PPARγ activating action (activation % (10^−6 M)) for "CCCCc1nc(C2CC2)n(-c2ccccc2)c(=O)c1Cc1ccc(-c2ccccc2-c2noc([O-])n2)cc1.[K+]" is 27.1

PPARγ activating action (activation % (10^−6 M)) for "CCCc1nc(CC)n(-c2ccc(OC)cc2)c(=O)c1Cc1ccc(-c2ccccc2-c2noc([O-])n2)cc1.[K+]" is 31.0

Taken from patent US7803940B2.
